Measurement Name: melting point

Before answering, review these 2 worked examples.
`CN(CCN(C)c1ccnc2c(NC(=O)c3c(Cl)cccc3Cl)cccc12)C(=O)c1cccnc1` has a reported melting point of 195 to 203 °C

`CON(Cc1ccc(C)cc1)C(=O)C1=C(O)C(=O)N(C)C1` has a reported melting point of 150 to 152 °C

New cases:
`Sc1nnc(Cc2ccc(Cl)cc2)o1` has a reported melting point of 115 °C

`Cc1ccc(-c2ccc(C(=O)Nc3ccc4cc(CN5CCCC5)cnc4c3)c(F)c2)cc1` has a reported melting point of 173 °C

`CCCN1CCc2c(cccc2NC(=O)c2ccc(OC)c(OC)c2)C1` has a reported melting point of 146 to 147 °C

* * *

Measurement Name: melting point

`N#CC(=CNC1CC1)C(=O)c1cc(F)c(F)c(F)c1F` has a reported melting point of 88 to 89 °C

`O=C(Nc1cccc(S(=O)(=O)NCc2cccnc2)c1)c1cnn2c(C(F)F)cc(-c3ccc(C(F)(F)F)cc3)nc12` has a reported melting point of 256 °C

`CC(=O)c1c(-c2ccncc2)sc(-c2ccncc2)c1C` has a reported melting point of 137 to 138 °C

* * *

melting point values by entry

Before answering, review these 4 worked examples.
`CC(C)(C)c1ncc(Nc2ncc(-c3ccc4ccncc4c3)c3ccccc23)cn1` has a reported melting point of 231 to 232 °C

`CC1(C)Nc2ccccc2-c2c([N+](=O)[O-])cnn21` has a reported melting point of 193 to 195 °C

`Cc1nnsc1C(=O)Nc1ccc(-n2nc(C(F)(F)F)cc2C2CC2)nc1` has a reported melting point of 170 to 172 °C

`CCCCOc1ccc(C[C@H](NC(=O)[C@H]2CC[C@H](C(C)C)CC2)C(=O)O)cc1` has a reported melting point of 120 to 121 °C

New cases:
`Clc1ccc(-c2cn([C@H]3CN4CCC3CC4)nn2)cc1Cl` has a reported melting point of 108 °C

* * *

melting point values by entry

`Cn1nnc2c(N3CCOCC3)nc(-c3ccc(NC(=O)Nc4cccnc4)cc3)nc21` has a reported melting point of 272 °C

CN1C(=O)COC(c2cccc(Cl)c2)c2cc(C(O)(c3ccc(Cl)cc3)c3cncn3C)ccc21 (stereo not given) has a reported melting point of 160 °C

`O=C(C=Cc1ccc(Oc2ccccc2)cc1)c1ccc(C2CCCCC2)cc1` has a reported melting point of 161 °C

`O=C(OCc1ccccc1)[C@@H](CC1=CCCC1)OS(=O)(=O)c1ccccc1[N+](=O)[O-]` has a reported melting point of 122 to 124 °C

`N#CN=C1CCCCN1C1=CC(CF)(CF)Oc2ccc(C(F)(F)C(F)(F)F)cc21` has a reported melting point of 196 to 197 °C

New cases:
`Cc1cccc(CC(=O)c2ccnc(-c3ccc(OC(F)(F)F)cc3)c2)n1` has a reported melting point of 60 °C

`C=CCNC(=O)N1CC(Oc2cccc(C(F)(F)F)c2)C1` has a reported melting point of 75 to 76 °C

`CCOC(=O)c1ccc(C#CC(=O)Nc2ccccc2)cc1` has a reported melting point of 114 to 115 °C

CC1=C(CO)C(=O)OC(C(C)C2CCC3C4CC5OC56C(O)C=CC(=O)C6(C)C4CCC23C)C1 (stereo not given) has a reported melting point of 227 to 228 °C

O=C(O)C1=Cc2cc(CO)ccc2OC1CC(F)(F)F (stereo not given) has a reported melting point of 178 to 181 °C

`CCCCN1CCC(n2c(=O)[nH]c3ccccc32)CC1` has a reported melting point of 207 to 209 °C

O=C(O)c1ccc2c(c1)C(c1ccccc1Cl)=NC=C1N=NC(C3CC3)N12 (stereo not given) has a reported melting point of 170 to 175 °C

`CCCCCCCCCCCCCCCCCCOC(=O)c1ccc(CBr)cc1` has a reported melting point of 53 to 55 °C

`Cc1noc(-c2ccc(-c3cscn3)cc2)c1-c1ccc(S(N)(=O)=O)cc1` has a reported melting point of 236 °C

`CCCCc1nc(CO)c(SCC)n1Cc1ccc(-c2ccccc2C(=O)OC)cc1` has a reported melting point of 110 °C

`Cc1noc(-c2c(C)nc(Br)n2C)n1` has a reported melting point of 89 °C

O=C(O)C1CCc2onc(-c3ccc(Cl)cc3)c2C1 (stereo not given) has a reported melting point of 203 to 205 °C

`O=C(NCc1ccc(Cl)cc1)c1cn(CCN2CCCC2)c2sc(CN3CCOCC3)cc2c1=O` has a reported melting point of 178 to 180 °C

`CNc1ncnc2c1ncn2/C=C/c1cc(NC(=O)c2cccc(C(F)(F)F)c2)ccc1C` has a reported melting point of 201 °C

`CCCCCCCCCCCCCCCCCC(=O)c1ccc(OC)c(C(=O)OC)c1` has a reported melting point of 73 to 74 °C

CC(C)(C(=O)O)C1OCCc2ccccc21 (stereo not given) has a reported melting point of 110 to 116 °C

`CCN(Cc1ccccc1)C(=O)Cc1c(-c2ccc(OC)cc2)nc2cc(C)ccn12` has a reported melting point of 175 to 178 °C

`CC(=O)N[C@@H]1[C@@H](CCO)CC(C(=O)O)=C[C@H]1OC(C)C` has a reported melting point of 114 to 115 °C

CCOC(=O)CC1N(c2c(C)cccc2C)C(=N)C(C)N1c1c(C)cccc1C (stereo not given) has a reported melting point of 116 to 119 °C

`COc1ccc(-c2c(NCCc3cccc(C(F)(F)F)c3)c(=O)c2=O)cc1` has a reported melting point of 220 to 222 °C

`CCC(=O)N(CC)c1cccc(-c2ccc3nnc(N)n3n2)c1` has a reported melting point of 199 to 200 °C

`NNc1ncc(-c2ccccc2)cn1` has a reported melting point of 155 °C

* * *

Measurement Name: melting point

Before answering, review these 6 worked examples.
CC(NC(=O)C(CS)Cc1ccccc1)C(=O)O (stereo not drawn) has a reported melting point of 120 to 124 °C

OCCC1c2ccccc2C(O)=NN1c1cccc(C(F)(F)F)c1 (stereo not drawn) has a reported melting point of 183 to 184 °C

`O=C(NO)Oc1ccccc1` has a reported melting point of 99.5 to 101 °C

`COC(=O)CNC(=O)Nc1cc(F)ccc1[N+](=O)[O-]` has a reported melting point of 133 to 135 °C

COc1ccc(C2COc3cc(OC(C)=O)c(OC(C)=O)cc3C2)cc1 (stereo not drawn) has a reported melting point of 104 °C

`Clc1ccc2c(Cl)c3c(nc2c1)CCCC3` has a reported melting point of 85 to 87 °C

// moving on: another record for melting point
`CS(=O)(=O)c1ccc(-c2ccc(C(F)(F)F)n2-c2ccc(F)cc2)cc1` has a reported melting point of 136 to 139 °C

* * *

melting point values by entry

Before answering, review these 4 worked examples.
`Fc1cccc(C2=NOCCS2)c1` has a reported melting point of 47 to 49 °C

`CC(=O)c1ccc(Nc2c3ccccc3nc3occc23)cc1` has a reported melting point of 220 to 221 °C

`COc1ccc2nc(CN(CCN(Cc3ccc4cc(OC)ccc4n3)Cc3ccc4cc(OC)ccc4n3)Cc3ccc4cc(OC)ccc4n3)ccc2c1` has a reported melting point of 168 to 170 °C

`COc1ccc2[nH]c3cc(-c4ccccc4-c4ccccc4)c4c(c3c2c1)C(=O)NC4=O` has a reported melting point of 220 to 223 °C

// moving on: another record for melting point
`Cc1ccc2c(c1)CC(=S)N2` has a reported melting point of 120 to 122 °C

* * *

melting point values by entry

Before answering, review these 2 worked examples.
`COc1ccc(C(=NOC(C)=O)c2ccc(Cl)cc2)c(O)c1` has a reported melting point of 167 °C

`CCOC(=O)c1ccc2nc3ccsc3c(=O)n2c1` has a reported melting point of 188 to 190 °C

New cases:
`CC(=O)c1c2c(cc3c1CCC3)CCC2` has a reported melting point of 69.1 to 76.1 °C

CC(C)c1ccc(N(Cc2ccc(Cl)cc2)C(=O)C2CCCc3ccccc32)cc1 (stereo unspecified) has a reported melting point of 122 to 123 °C

`Cc1ccc2nc(CCl)cn2c1` has a reported melting point of 88 to 89.2 °C

COC(=O)C(Cl)Cc1cc(F)c(-n2c(=O)cc(C(F)(F)F)n(C)c2=O)cc1[N+](=O)[O-] (stereo unspecified) has a reported melting point of 60 to 65 °C

`CCCC(CCC)n1c(CC)nc2c1c(=O)n(C)c(=O)n2-c1c(C)cc(C)cc1C` has a reported melting point of 195 to 196 °C

* * *

Measurement Name: melting point

Before answering, review these 4 worked examples.
`COc1cc2nc(N3CCc4cc(OCc5ccccc5)c(OC)cc4C3)cc(N)c2cc1OC` has a reported melting point of 181 to 182 °C

`CC=COC(=O)c1c(S(=O)(=O)NC(=O)Nc2nc(C)cc(C)n2)c(C)nn1C` has a reported melting point of 180 to 183 °C

CC1(C)CC(=O)C(C(=O)c2ccc(Cl)cc2[N+](=O)[O-])C(=O)N1 (stereo not given) has a reported melting point of 162 °C

O=C1CCC(CCC(=O)OCc2ccccc2Cl)N1 (stereo not given) has a reported melting point of 99 to 100 °C

New cases:
`CCOP(=O)(OCC)c1c(-c2c(OC)ccc3ccccc23)cc2c(c1-c1ccccc1)COC2` has a reported melting point of 123 to 125 °C
